These entries and their values trace back to ChEMBL document CHEMBL5360622.

Sequence of the target: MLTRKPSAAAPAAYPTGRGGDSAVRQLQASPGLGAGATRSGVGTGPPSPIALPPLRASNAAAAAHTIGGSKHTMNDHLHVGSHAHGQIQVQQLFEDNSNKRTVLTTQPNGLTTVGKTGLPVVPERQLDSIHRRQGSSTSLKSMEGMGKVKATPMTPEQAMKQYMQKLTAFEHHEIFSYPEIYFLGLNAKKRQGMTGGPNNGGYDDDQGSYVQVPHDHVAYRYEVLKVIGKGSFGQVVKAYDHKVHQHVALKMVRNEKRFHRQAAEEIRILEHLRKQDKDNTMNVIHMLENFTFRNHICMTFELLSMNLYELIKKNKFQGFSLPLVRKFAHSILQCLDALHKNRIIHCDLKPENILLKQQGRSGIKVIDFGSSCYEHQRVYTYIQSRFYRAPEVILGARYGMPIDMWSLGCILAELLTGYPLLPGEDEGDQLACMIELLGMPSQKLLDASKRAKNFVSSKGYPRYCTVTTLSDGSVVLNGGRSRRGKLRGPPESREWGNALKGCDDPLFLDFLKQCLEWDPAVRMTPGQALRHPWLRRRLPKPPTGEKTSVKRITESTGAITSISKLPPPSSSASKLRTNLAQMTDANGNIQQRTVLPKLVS
pIC50: −log10 of the molar value.
endpoint.name: pIC50

- record.smiles: "CN1CCN(c2cnc(NC3=N/C(=C\\c4ccc5ncsc5c4)C(=O)N3)nc2)CC1"
  comparator: "="
  value.reported: 5.13
- record.smiles: "O=C1NC(NCC2CCOCC2)=N/C1=C\\c1ccc2ncsc2c1"
  comparator: "="
  value.reported: 6.09
- record.smiles: "O=C1NC(NC2CC3(CCC3)C2)=N/C1=C\\c1ccc2ncsc2c1"
  comparator: "="
  value.reported: 5.97
- record.smiles: "O=C1NC(N[C@@H]2c3ccccc3C[C@H]2O)=N/C1=C\\c1ccc2ncsc2c1"
  comparator: "="
  value.reported: 6.41
- record.smiles: "O=C1NC(N[C@@H](CO)CC2CC2)=N/C1=C\\c1ccc2ncsc2c1"
  comparator: "="
  value.reported: 5.09
- record.smiles: "O=C1NC(Nc2ccccn2)=N/C1=C\\c1ccc2ncsc2c1"
  comparator: "="
  value.reported: 6.59
- record.smiles: "O=C1NC(N[C@@H](CO)CC2CCCC2)=N/C1=C\\c1ccc2ncsc2c1"
  comparator: "="
  value.reported: 5.40
- record.smiles: "O=C1NC(NCc2nc3ccccc3s2)=N/C1=C\\c1ccc2ncsc2c1"
  comparator: "<"
  value.reported: 5.00
- record.smiles: "CN1CCN(c2cnc(NC3=N/C(=C\\c4ccc5ncsc5c4)C(=O)N3)cn2)CC1"
  comparator: "="
  value.reported: 6.10
- record.smiles: "O=C1NC(NC[C@@H](O)c2ccccc2)=N/C1=C\\c1ccc2ncsc2c1"
  comparator: "="
  value.reported: 7.80
